Measured GI50 on SR follows.
Among all 48,000 sequences or so, about 6,100 (13%) were called active. This excerpt belongs to a sample that is enriched for actives. Potency and affinity values are given separately.
measured-quantity: GI50 (nM)

substance	measured-quantity	measure-unit	val
[Bis(aminomethyl)tetramethylenesilane]tetrachloropaltinum(IV), CHEMBL2146189	GI50	nM	499
[Bis(aminomethyl)pentamethylenesilane]tetrachloropaltinum(IV), CHEMBL2146204	GI50	nM	422
[Bis(aminomethyl)pentamethylenesilane]dichloropaltinum(II), CHEMBL2146202	GI50	nM	1490
[Bis(aminomethyl)tetramethylenesilane]dichloropaltinum(II), CHEMBL2146205	GI50	nM	3520
CISPLATIN, CHEMBL11359	GI50	nM	618
